MIC values recorded for Escherichia coli K12 ML1410

Solved cases (4 shown):
molecule | target | MIC
NC[C@H]1O[C@H](O[C@H]2[C@H](O)[C@@H](O)[C@H](N)C[C@@H]2N)[C@H](N)C[C@@H]1O [3'-Deoxyneamine, 3'-deoxyneamine] | Escherichia coli K12 ML1410 | 6.25 µg/mL
NC[C@H]1O[C@H](O[C@H]2[C@H](O)[C@@H](O[C@H]3O[C@H](CO)[C@@H](O)[C@H](N)[C@H]3O)[C@H](N)C[C@@H]2N)[C@H](N)C[C@@H]1O [3'-Deoxykanamycin B, 3'-deoxykanamycin B] | Escherichia coli K12 ML1410 | 0.78 µg/mL
N[C@@H]1C[C@H](O)[C@@H](CO)O[C@@H]1O[C@H]1[C@H](O)[C@@H](O)[C@H](N)C[C@@H]1N [3'-Deoxyparomamine, 3'-deoxyparomamine] | Escherichia coli K12 ML1410 | > 100 µg/mL
CNC[C@H]1O[C@H](O[C@H]2[C@H](O)[C@@H](O[C@H]3O[C@H](CO)[C@@H](O)[C@H](N)[C@H]3O)[C@H](N)C[C@@H]2N)[C@H](N)C[C@@H]1O [3'-Deoxy-6'-N-methylkanamycin B, 3'-deoxy-6'-N-methylkanamycin B] | Escherichia coli K12 ML1410 | 1.56 µg/mL

Consider now this further molecule.
Enquiry: Checklist item: MIC tested on Escherichia coli K12 ML1410, entry NC[C@H]1O[C@H](O[C@H]2[C@H](O[C@@H]3O[C@H](CO)[C@@H](O)[C@H]3O)[C@@H](O)[C@H](N)C[C@@H]2N)[C@H](N)C[C@@H]1O [3'-Deoxyribostamycin, 3'-deoxyribostamycin] , value?
Return: 6.25 µg/mL

###

Measured MIC (Escherichia coli K12 W677)
Kindly report the value followed by its unit.

compound | target | recorded_measurement
NC[C@H]1O[C@H](O[C@H]2[C@H](O[C@@H]3O[C@H](CO)[C@@H](O)[C@H]3O)[C@@H](O)[C@H](N)C[C@@H]2N)[C@H](N)C[C@@H]1O [3'-Deoxyribostamycin, 3'-deoxyribostamycin] | Escherichia coli K12 W677 | 3.12 µg/mL

Enquiry: What MIC value was documented for this compound, NC[C@H]1O[C@H](O[C@H]2[C@H](O)[C@@H](O[C@H]3O[C@H](CO)[C@@H](O)[C@H](N)[C@H]3O)[C@H](N)C[C@@H]2N)[C@H](N)C[C@@H]1O [3'-Deoxykanamycin B, 3'-deoxykanamycin B] ?
Return: 1.56 µg/mL

###

Tested on: Staphylococcus aureus FDA 209P
measurement_kind: MIC (µg/mL)
Give just the numeric value; µg/mL need not be written.

compound | MIC, µg/mL
NC[C@H]1O[C@H](O[C@H]2[C@H](O)[C@@H](O[C@H]3O[C@H](CO)[C@@H](O)[C@H](N)[C@H]3O)[C@H](N)C[C@@H]2N)[C@H](N)C[C@@H]1O [3'-Deoxykanamycin B, 3'-deoxykanamycin B] | 0.78

In the following, a different compound is considered.
Enquiry: Notebook entry, Staphylococcus aureus FDA 209P assay: MIC of CNC[C@H]1O[C@H](O[C@H]2[C@H](O)[C@@H](O[C@H]3O[C@H](CO)[C@@H](O)[C@H](N)[C@H]3O)[C@H](N)C[C@@H]2N)[C@H](N)C[C@@H]1O [3'-Deoxy-6'-N-methylkanamycin B, 3'-deoxy-6'-N-methylkanamycin B] = ?
Return: 1.56

###

Tested on: Pseudomonas aeruginosa No.12
protocol_description: Minimum inhibitory concentration, standard serial dilution method, nutrient agar
Assay type: cell-based
condition_set: NO.12, 18 h, read-out: Minimum Inhibitory Concentration
Measured MIC by item
Just the number in µg/mL, nothing appended.

Examples with their reported MIC follow.
compound_string | target | MIC / µg/mL
NC[C@H]1O[C@H](O[C@H]2[C@H](O)[C@@H](O[C@H]3O[C@H](CO)[C@@H](O)[C@H](N)[C@H]3O)[C@H](N)C[C@@H]2N)[C@H](N)C[C@@H]1O | Pseudomonas aeruginosa No.12 | 0.78
CNC[C@H]1O[C@H](O[C@H]2[C@H](O)[C@@H](O[C@H]3O[C@H](CO)[C@@H](O)[C@H](N)[C@H]3O)[C@H](N)C[C@@H]2N)[C@H](N)C[C@@H]1O | Pseudomonas aeruginosa No.12 | 0.78
NC[C@H]1O[C@H](O[C@H]2[C@H](O[C@@H]3O[C@H](CO)[C@@H](O)[C@H]3O)[C@@H](O)[C@H](N)C[C@@H]2N)[C@H](N)C[C@@H]1O | Pseudomonas aeruginosa No.12 | 3.12

Enquiry: Find MIC (Pseudomonas aeruginosa No.12) for the entry NC[C@H]1O[C@H](O[C@H]2[C@H](O)[C@@H](O)[C@H](N)C[C@@H]2N)[C@H](N)C[C@@H]1O
Return: 6.25

###

Here the recorded MIC is given for each entry.
System: Escherichia coli K12 W677
Hi! Could you send only the number? It should be in µg/mL, unit omitted.

compound_string | unit_abbrev | MIC
CNC[C@H]1O[C@H](O[C@H]2[C@H](O)[C@@H](O[C@H]3O[C@H](CO)[C@@H](O)[C@H](N)[C@H]3O)[C@H](N)C[C@@H]2N)[C@H](N)C[C@@H]1O | µg/mL | 1.56

Turning now to a further compound:
Enquiry: Query for Escherichia coli K12 W677: what MIC does the record show for NC[C@H]1O[C@H](O[C@H]2[C@H](O)[C@@H](O)[C@H](N)C[C@@H]2N)[C@H](N)C[C@@H]1O ?
Return: 6.25

###

For Staphylococcus aureus FDA 209P, measured MIC is reported for the entries below.
Please state the figure in µg/mL; there is no need to write the unit.

// below: answered compounds
compound_string | target | MIC / µg/mL
NC[C@H]1O[C@H](O[C@H]2[C@H](O)[C@@H](O)[C@H](N)C[C@@H]2N)[C@H](N)C[C@@H]1O | Staphylococcus aureus FDA 209P | 3.12
N[C@@H]1C[C@H](O)[C@@H](CO)O[C@@H]1O[C@H]1[C@H](O)[C@@H](O)[C@H](N)C[C@@H]1N | Staphylococcus aureus FDA 209P | 50

Then there is this compound:
Enquiry: Any idea what its MIC is? The compound is NC[C@H]1O[C@H](O[C@H]2[C@H](O[C@@H]3O[C@H](CO)[C@@H](O)[C@H]3O)[C@@H](O)[C@H](N)C[C@@H]2N)[C@H](N)C[C@@H]1O
Return: 6.25

Origin of measurements: patent US4060682A
